Quick reference: EC50 of the listed items.
# Tested on: Semliki Forest virus
# Test description: Antiviral activity against Semliki forest virus Vietnam infected in African green monkey Vero cells assessed as inhibition of virus-induced cell death after 6 to 7 days by MTS assay
# Assay type: functional, organism-based

Give the measured EC50 of C=C1[C@H](OC(C)=O)[C@H]2[C@@H](OC(C)=O)[C@](C)(OC(C)=O)C[C@]2(OC(C)=O)C(=O)[C@H](C)/C=C/C(C)(C)C(=O)[C@H](OC(=O)c2ccccc2)[C@H]1OC(C)=O .
> 140 µM

Give the measured EC50 of C=C1[C@H](OC(C)=O)[C@H]2[C@@H](OC(C)=O)[C@](C)(O)C[C@]2(OC(C)=O)C(=O)[C@H](C)/C=C/C(C)(C)C(=O)[C@H](OC(=O)c2ccccc2)[C@H]1OC(C)=O .
> 165 µM

----------
Quick reference: CC50 of the listed items.
# Test description: Cytotoxicity against African green monkey Vero cells assessed as inhibition of overall cell metabolism after 6 to 7 days by MTS assay
# Assay type: ADME, cell-based
# Test context: chlorocebus sabaeus

C=C1[C@H](OC(C)=O)[C@H]2[C@@H](OC(C)=O)[C@](C)(OC(C)=O)C[C@]2(OC(C)=O)C(=O)[C@H](C)/C=C/C(C)(C)C(=O)[C@H](OC(C)=O)[C@H]1OC(C)=O = > 154 µM

Give the measured CC50 of C=C1[C@H](OC(C)=O)[C@H]2[C@@H](OC(=O)c3ccccc3)[C@@H](C)C[C@]2(O)[C@H](O)[C@H](C)/C=C/C(C)(C)C(=O)[C@H](OC(=O)C(C)CC)[C@H]1OC(C)=O (some centres undefined) .
> 190 µM

Give the measured CC50 of C=C1[C@H](OC(C)=O)[C@H]2[C@@H](OC(C)=O)[C@](C)(O)C[C@]2(OC(C)=O)C(=O)[C@H](C)/C=C/C(C)(C)C(=O)[C@H](OC(=O)C(C)C)[C@H]1OC(C)=O .
> 196 µM

Give the measured CC50 of C=C1[C@H](OC(C)=O)[C@H]2[C@@H](OC(C)=O)[C@](C)(OC(C)=O)C[C@]2(OC(C)=O)C(=O)[C@H](C)/C=C/C(C)(C)C(=O)[C@H](OC(=O)c2ccccc2)[C@H]1OC(C)=O .
> 50 µM

----------
Quick reference: pIC50 of the listed items.
# Tested on: Human immunodeficiency virus 2
# Test description: Antiviral activity against Human immunodeficiency virus type 2 ROD infected in human MT4 cells assessed as inhibition of virus replication after 5 days by MTT assay
# Assay type: functional, organism-based
# Test context: Human immunodeficiency virus 2, ISOLATE ROD, MT4, 120 h
pIC50: −log10 of the molar value.

Example compounds with recorded pIC50:
C=C1[C@H](OC(C)=O)[C@H]2[C@@H](OC(=O)c3ccccc3)[C@@H](C)C[C@]2(O)[C@H](O)[C@H](C)/C=C/C(C)(C)C(=O)[C@H](OC(=O)C(C)CC)[C@H]1OC(C)=O (some centres undefined) = < 4.12
C=C1[C@H](OC(C)=O)[C@H]2[C@@H](OC(=O)c3ccccc3)[C@@H](C)C[C@]2(O)[C@H](O)[C@H](C)/C=C/C(C)(C)C(=O)[C@H](OC(=O)C(C)C)[C@H]1OC(C)=O = < 4.41
C=C1[C@H](OC(C)=O)[C@H]2[C@@H](OC(C)=O)[C@](C)(O)C[C@]2(OC(C)=O)C(=O)[C@H](C)/C=C/C(C)(C)C(=O)[C@H](OC(=O)C(C)C)[C@H]1OC(C)=O = < 4.10

Query compound follows.
Give the measured pIC50 of Cc1ccnc2c1NC(=O)c1cccnc1N2C1CC1 .
< 4.82
